The measurements presented in this section are drawn from ChEMBL document CHEMBL4382242.

# System: MCF7
# protocolDescription: Growth inhibition of human MCF7 cells after 72 hrs by MTT assay
# Assay type: functional, cell-based
# measurementParameters: MCF7, 72 h
valueKind: pIC50
# log scale: pIC50 equals minus log10 of the concentration in mol/L

Task: Can you share its pIC50? I mean this molecule: `O=C(NCCNCCO)c1cc2c3ccccc3[nH]c2c2c1[nH]c1ccccc12`
Output: 5.31

Task: Can you share its pIC50? I mean this molecule: `CN1CCC(NC(=O)c2cc3c4ccccc4[nH]c3c3c2[nH]c2ccccc23)CC1`
Output: 5.41

Task: Can you share its pIC50? I mean this molecule: `O=C(NCc1ccncc1)c1cc2c3ccccc3[nH]c2c2c1[nH]c1ccccc12`
Output: 5.09

Task: Can you share its pIC50? I mean this molecule: `O=C(NCCc1c[nH]cn1)c1cc2c3ccccc3[nH]c2c2c1[nH]c1ccccc12`
Output: 5.31

Task: Can you share its pIC50? I mean this molecule: `COc1ccc2[nH]c3c(C(=O)NCCN(C)C)cc4c5ccccc5[nH]c4c3c2c1`
Output: 5.29

----------
# Tested on: MCF7
# protocolDescription: Growth inhibition of human MCF7 cells after 72 hrs by MTT assay
# Assay type: functional, cell-based
# measurementParameters: MCF7, 72 h
pIC50: −log10 of the molar value.
valueKind: pIC50

Solved entries (count: 3):
COC(=O)c1cc2c3ccccc3[nH]c2c2c1[nH]c1ccccc12	< 4.40
COC(=O)c1cc2c3ccccc3[nH]c2c2c1[nH]c1ccc(Br)cc12	< 4.40
COC(=O)c1cc2c3ccccc3[nH]c2c2c1[nH]c1cc(Cl)ccc12	< 4.40

Task: Can you share its pIC50? I mean this molecule: COc1cc([C@@H]2c3cc4c(cc3[C@@H](O[C@@H]3O[C@@H]5CO[C@@H](C)O[C@H]5[C@H](O)[C@H]3O)[C@H]3COC(=O)[C@H]23)OCO4)cc(OC)c1O [ETOPOSIDE]
Output: < 5.00
